Taken from patent US8889666B2.

# IC50 per record follows
Target: EGFR (L858R) (Homo sapiens, UniProt P00533, L858R)
Sequence (P00533 25-1210 L858R): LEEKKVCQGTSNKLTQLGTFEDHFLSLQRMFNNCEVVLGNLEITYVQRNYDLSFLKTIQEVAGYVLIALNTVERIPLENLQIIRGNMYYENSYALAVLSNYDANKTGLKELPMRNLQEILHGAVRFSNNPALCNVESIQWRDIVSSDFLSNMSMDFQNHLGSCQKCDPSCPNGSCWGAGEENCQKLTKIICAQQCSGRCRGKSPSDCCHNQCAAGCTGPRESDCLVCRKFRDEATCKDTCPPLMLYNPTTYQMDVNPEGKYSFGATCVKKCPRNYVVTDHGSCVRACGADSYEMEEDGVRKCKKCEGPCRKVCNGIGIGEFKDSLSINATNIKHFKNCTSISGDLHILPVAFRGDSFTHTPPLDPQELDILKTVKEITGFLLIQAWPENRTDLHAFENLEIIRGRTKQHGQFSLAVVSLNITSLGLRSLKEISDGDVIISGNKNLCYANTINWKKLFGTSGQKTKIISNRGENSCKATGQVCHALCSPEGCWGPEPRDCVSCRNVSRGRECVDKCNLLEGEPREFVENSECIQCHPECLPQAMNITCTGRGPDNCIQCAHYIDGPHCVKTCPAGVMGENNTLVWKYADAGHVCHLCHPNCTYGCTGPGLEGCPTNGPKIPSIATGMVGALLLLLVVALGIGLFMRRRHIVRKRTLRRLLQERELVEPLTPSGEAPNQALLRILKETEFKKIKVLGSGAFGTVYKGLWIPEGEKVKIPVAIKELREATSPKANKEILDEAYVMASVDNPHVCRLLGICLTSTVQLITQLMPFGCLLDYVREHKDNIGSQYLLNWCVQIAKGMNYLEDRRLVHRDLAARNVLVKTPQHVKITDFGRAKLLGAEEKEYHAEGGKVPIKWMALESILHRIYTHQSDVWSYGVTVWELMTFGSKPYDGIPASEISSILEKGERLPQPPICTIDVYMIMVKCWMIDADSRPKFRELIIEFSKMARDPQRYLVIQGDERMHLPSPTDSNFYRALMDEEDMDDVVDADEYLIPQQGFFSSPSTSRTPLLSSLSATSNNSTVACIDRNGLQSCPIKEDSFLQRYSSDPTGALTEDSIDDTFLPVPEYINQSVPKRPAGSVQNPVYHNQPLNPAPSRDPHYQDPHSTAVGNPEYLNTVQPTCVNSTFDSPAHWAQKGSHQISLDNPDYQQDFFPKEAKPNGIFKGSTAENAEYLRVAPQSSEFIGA
Assay: EGFR (L858R) kinase inhibitory activity (in vitro)
Conditions: recombinant human protein, ATP 4 μM
Procedure: The measurement method was as follows. The compounds I-1, I-2, I-3, I-4, I-5, I-6, I-7, I-8, and I-9 were each dissolved in dimethylsulfoxide (DMSO), and then each serially diluted with DMSO. […] Finally, the intensity of fluorescence under the excitation light with a wavelength of 337 nm was measured by a PHERAstar FS (BMG LABTECH) at two wavelengths of 620 nm and 665 nm. […] The inhibitory activities of the compounds I-1, I-2, I-3, I-4, I-5, I-6, I-7, I-8, and I-9 for EGFR (L858R) kinase were measured. […]
Number in nM, nothing else.

INPUT: Param item = C=CC(=O)N[C@H]1CCCc2c(-c3cnc4ccccc4c3)c3c(N)ncnc3n2C1 ; retrieve measured IC50.
OUTPUT: 41

INPUT: Same question, C=CC(=O)N(C)C1CCc2c(-c3cnc4ccccc4c3)c3c(N)ncnc3n2C1 (stereo not shown) this time
OUTPUT: 1.3

INPUT: And what about the molecule C=CC(=O)N[C@@H]1CCCc2c(-c3cnc4ccccc4c3)c3c(N)ncnc3n2C1 ?
OUTPUT: 350

INPUT: Check Nc1ncnc2c1c(-c1cnc3ccccc3c1)c1n2C[C@@H](NC(=O)/C=C/Cl)CC1 too.
OUTPUT: 0.7

INPUT: Next entry: Nc1ncnc2c1c(-c1cnc3ccccc3c1)c1n2C[C@@H](NC(=O)/C=C\Cl)CC1
OUTPUT: 2.9

Next:
INPUT: Can you look up the measured IC50 of C=CC(=O)N[C@H]1CCc2c(-c3cnc4ccccc4c3)c3c(N)ncnc3n2C1 (single isomer, unassigned) for me?
OUTPUT: 0.4

INPUT: Next up: C=CC(=O)N[C@H]1CCc2c(-c3cnc4ccccc4c3)c3c(N)ncnc3n2CC1
OUTPUT: 2.9

INPUT: One more molecule: CN(C)C/C=C/C(=O)NC1CCc2c(-c3cnc4ccccc4c3)c3c(N)ncnc3n2C1 (stereo not shown)
OUTPUT: 12

INPUT: Also C=CC(=O)N[C@@H]1CCc2c(-c3cnc4ccccc4c3)c3c(N)ncnc3n2C1 (single isomer, unassigned) ?
OUTPUT: 14

###

log10 of IC50 values by entry
molecular target: EGFR (d746-750) (Homo sapiens, UniProt P00533, DEL746-750); construct: purchased Carna Biosciences, Inc; assay: EGFR (d746-750) kinase inhibitory activity (in vitro); type: biochemical; conditions: recombinant human protein, ATP 5 μM, 90 minutes
Sequence (P00533 with tags, fused parts or gaps DEL746-750 limits assumed): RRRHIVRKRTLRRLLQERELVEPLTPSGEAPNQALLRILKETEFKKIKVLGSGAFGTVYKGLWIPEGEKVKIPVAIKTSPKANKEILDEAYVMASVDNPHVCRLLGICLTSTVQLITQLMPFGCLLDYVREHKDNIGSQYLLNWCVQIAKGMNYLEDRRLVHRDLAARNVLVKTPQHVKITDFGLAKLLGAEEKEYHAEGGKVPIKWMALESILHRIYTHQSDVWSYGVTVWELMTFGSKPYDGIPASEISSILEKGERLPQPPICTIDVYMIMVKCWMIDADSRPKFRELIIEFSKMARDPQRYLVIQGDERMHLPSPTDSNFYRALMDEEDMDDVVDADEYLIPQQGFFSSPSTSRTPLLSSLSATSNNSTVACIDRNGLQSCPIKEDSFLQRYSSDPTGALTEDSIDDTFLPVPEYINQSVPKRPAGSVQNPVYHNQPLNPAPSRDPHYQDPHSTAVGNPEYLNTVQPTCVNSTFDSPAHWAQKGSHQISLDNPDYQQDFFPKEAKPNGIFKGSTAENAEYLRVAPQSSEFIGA
Would you kindly interpret these values as log10 of IC50 expressed in nM?

The following compounds have reported results that may help.
INPUT: What value of log10 of IC50 has been recorded for this entry: CN(C)C/C=C/C(=O)NC1CCc2c(-c3cnc4ccccc4c3)c3c(N)ncnc3n2C1 (stereo not shown)
OUTPUT: 1.00

INPUT: Then what about the compound C=CC(=O)N(C)C1CCc2c(-c3cnc4ccccc4c3)c3c(N)ncnc3n2C1 (stereo not shown) ?
OUTPUT: 0.00

INPUT: Subsequent entry: C=CC(=O)N[C@H]1CCc2c(-c3cnc4ccccc4c3)c3c(N)ncnc3n2C1 (single isomer, unassigned)
OUTPUT: -0.40

INPUT: Now give it for C=CC(=O)N[C@H]1CCCc2c(-c3cnc4ccccc4c3)c3c(N)ncnc3n2C1 too.
OUTPUT: 1.30

INPUT: Again, but for C=CC(=O)N[C@@H]1CCc2c(-c3cnc4ccccc4c3)c3c(N)ncnc3n2C1 (single isomer, unassigned)
OUTPUT: 1.11

Now for a further compound.
INPUT: Please report the recorded log10 of IC50 for Nc1ncnc2c1c(-c1cnc3ccccc3c1)c1n2C[C@@H](NC(=O)/C=C\Cl)CC1 .
OUTPUT: 0.56
